Values from patent US4628095A

System: vascular smooth muscle (isolated thoracic aorta segments)
MEASUREMENT NOTES: Calcium antagonism in vascular smooth muscle, isolated thoracic aorta segments from male spontaneously hypertensive rat (pA2)
Type: cell-based
PROTOCOL CONDITIONS: test compound 1×10^-6 M, one hour incubation; K+ (100 mM) depolarized; considered active if pA2 is 6.0 or greater; 60 min, 1 µM
QUANTITY MEASURED: pA2 (Ca++ antagonism)
I only need the number, thanks.

Task: # pA2 (Ca++ antagonism) lookup, item CN(C)c1ccc(CN2CCC(C(c3ccccc3)c3ccccc3)CC2)c(C(=O)NC(C)(C)C)c1
Output: 7.20

Task: Entry COC(=O)c1cc(N(C)C)ccc1CN1CCC(C(c2ccc(F)cc2)c2ccc(F)cc2)CC1 please
Output: 7.78

Task: Please do the same for CNC(=O)c1cc(N(C)C)ccc1CN1CCC(C(c2ccccc2)c2ccccc2)CC1 as well.
Output: 7.25

Task: What do you get for COC(=O)c1cc(N(C)C)ccc1CN1CCC(C(c2ccccc2)c2ccccc2)CC1 ?
Output: 7.65
